Reported LC50 values follow for various compounds
Tested on: Bemisia tabaci
ASSAY PROCEDURE: Film/vial test on whitefly (BT), susceptible strain SUD-S
Format: in vivo
DETAILS: 48 h, read-out: BT (SUD-S) (LC50)
Numbers only here, please. The scale is µg/mL.

Below, 2 compounds whose answers are already recorded.
Any idea what its LC50 is? The compound is `C[Si](C)(C)CCCCCC1=C(O)C(=O)c2ccccc2C1=O`
6.8

And what about the compound `C[Si](C)(C)CCCCCCCCCC1=C(O)C(=O)c2ccccc2C1=O` ?
8.6

Others:
Given the compound `CCC[Si](C)(C)CCCCCCCCC1=C(O)C(=O)c2ccccc2C1=O` , what is its reported LC50?
13

Could you do the same for `C[Si](C)(C)CCCCCCCC1=C(O)C(=O)c2ccccc2C1=O` , please?
8.2

Lookup `C[Si](C)(C)CCCCCCCCC1=C(O)C(=O)c2ccccc2C1=O`
14.6

Subsequent entry: `C[Si](C)(C)CCC1=C(O)C(=O)c2ccccc2C1=O`
2.6

Proceed to `C[Si](C)(C)CC=CC1=C(O)C(=O)c2ccccc2C1=O`
30

Entry `CC[Si](C)(C)CCCCCCCCC1=C(O)C(=O)c2ccccc2C1=O` please
15

Again, but for `CC[Si](CC)(CC)CCCCCCCCC1=C(O)C(=O)c2ccccc2C1=O`
22

Item: `CC(=O)OC1=C(CC[Si](C)(C)C)C(=O)c2ccccc2C1=O`
2.9

Then what about the compound `C[Si](C)(C)CC1=C(O)C(=O)c2ccccc2C1=O` ?
1.7
